Origin of measurements: BindingDB's records for doi:10.1016/j.bioorg.2011.05.001

- TARGET DESC: Carboxylic ester hydrolase (Equus caballus)
- Sequence (Q9N1N9 whole entry): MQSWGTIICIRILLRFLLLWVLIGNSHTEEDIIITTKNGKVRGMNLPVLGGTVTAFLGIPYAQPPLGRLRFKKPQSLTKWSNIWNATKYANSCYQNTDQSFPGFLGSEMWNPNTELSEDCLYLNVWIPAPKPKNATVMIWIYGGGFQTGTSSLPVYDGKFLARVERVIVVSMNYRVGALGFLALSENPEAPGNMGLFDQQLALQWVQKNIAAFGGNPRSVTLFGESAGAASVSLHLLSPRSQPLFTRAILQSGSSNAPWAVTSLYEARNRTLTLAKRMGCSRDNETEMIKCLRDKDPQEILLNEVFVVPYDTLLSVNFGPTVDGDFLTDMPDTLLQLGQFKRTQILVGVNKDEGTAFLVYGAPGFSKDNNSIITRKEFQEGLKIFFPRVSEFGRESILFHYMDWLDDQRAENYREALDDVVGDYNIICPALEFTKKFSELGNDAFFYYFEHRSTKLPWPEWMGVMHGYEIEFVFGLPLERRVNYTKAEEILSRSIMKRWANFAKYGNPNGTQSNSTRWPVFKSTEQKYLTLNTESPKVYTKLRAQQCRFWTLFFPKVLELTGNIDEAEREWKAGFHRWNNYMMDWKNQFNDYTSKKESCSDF
Where a name gives a salt, the structure may show the parent alone.
MEASURE: pIC50
Answers are plain numbers, as −log10 of the molar value.

Q. Given the compound NNc1ccc(C(=O)NCCCCNc2c3c(nc4ccccc24)CCCC3)cn1 [Nicotinamide hydrochloride analog, 6a] , what is its reported pIC50?
A. 8.84

Turning now to a further record.
Q. Given the compound NNc1ccc(C(=O)NCCCCCCCNc2c3c(nc4ccccc24)CCCC3)cn1 [Nicotinamide hydrochloride analog, 6c] , what is its reported pIC50?
A. 8.95

----------
Acetylcholinesterase (Electrophorus electricus) data, read-out IC50
Sequence (O42275 whole entry): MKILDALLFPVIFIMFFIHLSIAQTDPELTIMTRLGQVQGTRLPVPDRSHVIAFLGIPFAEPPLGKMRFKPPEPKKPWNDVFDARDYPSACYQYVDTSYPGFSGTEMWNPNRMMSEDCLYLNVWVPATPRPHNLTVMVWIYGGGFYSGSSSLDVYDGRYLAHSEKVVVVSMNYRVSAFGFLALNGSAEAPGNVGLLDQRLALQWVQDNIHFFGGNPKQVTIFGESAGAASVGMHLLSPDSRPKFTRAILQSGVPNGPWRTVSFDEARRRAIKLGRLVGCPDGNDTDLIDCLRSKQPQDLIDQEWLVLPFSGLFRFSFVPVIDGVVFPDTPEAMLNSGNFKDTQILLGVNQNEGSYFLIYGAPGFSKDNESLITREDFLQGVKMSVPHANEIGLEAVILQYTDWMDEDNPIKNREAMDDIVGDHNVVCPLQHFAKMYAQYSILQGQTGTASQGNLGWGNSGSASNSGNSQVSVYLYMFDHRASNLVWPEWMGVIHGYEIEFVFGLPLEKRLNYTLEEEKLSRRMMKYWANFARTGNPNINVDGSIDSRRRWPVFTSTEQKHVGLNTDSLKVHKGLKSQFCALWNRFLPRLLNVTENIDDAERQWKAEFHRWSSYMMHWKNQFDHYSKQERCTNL
Where a name gives a salt, the structure may show the parent alone.
Field note: include the unit after the figure.

Each compound below has a recorded value; state its IC50.
1. NNc1ccc(C(=O)NCCCCCNc2c3c(nc4ccccc24)CCCC3)cn1 [Nicotinamide hydrochloride analog, 6b]
2. NNc1ccc(C(=O)NCCCCCCCNc2c3c(nc4ccccc24)CCCC3)cn1 [Nicotinamide hydrochloride analog, 6c]
3. NNc1ccc(C(=O)NCCCCNc2c3c(nc4ccccc24)CCCC3)cn1 [Nicotinamide hydrochloride analog, 6a]

A.
308 nM
721 nM
440 nM
